procedure_summary: Cmax in mouse at 1 mg/kg, iv or 2 mg/kg, po
Assay type: ADME, organism-based
test_conditions: in vivo
API: label(entry) gives Condition met if the entry's Cmax is strictly smaller than 1000 nM; on equality or larger values it gives Condition not met.

Lookup: is_below(Cmax, 1000 nM) for O=C(CCc1cnc(-c2ccc(O)cc2Cl)s1)Nc1ccccc1C(=O)O ?
Found: Condition not met

Lookup: Hello, is Cmax of the following compound strictly smaller than 1000 nM? O=C(CCc1nc(-c2ccc(O)cc2)no1)Nc1ccccc1C(=O)O
Found: Condition met

Lookup: hey, is Cmax for O=C(CCc1cnc(-c2ccc(O)cn2)s1)Nc1ccccc1C(=O)O lower than 1000 nM or not?
Found: Condition met

Lookup: API: query returns whether the compound falls strictly under 1000 nM in Cmax. Query: O=C(CCc1ccc(-c2ccc(O)cn2)cc1)Nc1ccccc1C(=O)O
Found: Condition not met

Lookup: # check: Cmax < 1000 nM for O=C(CCc1ccc(-c2ccc(O)cc2Cl)cc1)Nc1ccccc1C(=O)O
Found: Condition met

Lookup: Find out if reported Cmax for Cc1c(CCC(=O)Nc2ccccc2C(=O)O)cnn1-c1ccc(O)cc1 is less than 1000 nM
Found: Condition met

The measured values listed here are drawn from ChEMBL document CHEMBL1138322.
